Test: soluble on expression in E. coli; label from the status in PepcDB or PDB records

sequence.string: MSSIDPATFAAQFAQIEIQPFKQRYQLQTNTYQSQLSALGKVESAMREFRTALNEMNSSTNSIIKNSTSISQEGYFTANADAKALSGSYQIFVEQVATSHQ
soluble on expression in E. coli: not soluble
--
sequence.string: MQTISDNAANAIQEIFGRSKALIGMIHCPAFPGAPRYRNASMDAIYDACMRDAERLIEGGMHGLIVENHGDVPFSKPDDIGPETSAFMSVVTDRIVRTAGVPVGINVLANAPIPAFAIAKAGGAKFIRVNQWANAYVANEGFMEGRAAEAMRYRSLLRAEHIKVFADSHVKHGAHAITADRSIDELTRDLAFFDADGVIATGQRTGNSASLEEIEEIGAATHLPLLVGSGVNEGNIVEILKRTSGVIVASSLKEGGVWWNPVELARVRSFVAAARPGLEALEHHHHHH
soluble on expression in E. coli: soluble
--
sequence.string: MINFEATELRLGLPGGNHGGEMAGKNNGKRGFSETVDLKLNLSSTAMDSVSKVDLENMKEKVVKPPAKAQVVGWPPVRSFRKNVMSGQKPTTGDATEGNDKTSGSSGATSSASACATVAYVKVSMDGAPYLRKIDLKLYKTYQDLSNALSKMFSSFTIGNYGPQGMKDFMNESKLIDLLNGSDYVPTYEDKDGDWMLVGDVPWEMFVDSCKRIRIMKGSEAIGLAPRALEKCKNRS
soluble on expression in E. coli: soluble
--
sequence.string: LGGAQETAETMAKESMVLLKNTDDTLPLSGDESVLLTGPGVDSNGNNTRALMQHGGWTLGWQGASAGGPFPRQNLLEAELRARVGSLTHVPTSYENTTWWAGEGDGGNQQSDENGNFDFTAEQRSRVESAGPESDVVVVVLGEGTHNEGFGDRDELVLDESQQALLDTVVESTDDSAPIIGVMLAGSPRGSPETFSQLDALLFAGQPGSDGGVAIAETLVGEYNPSGKLPFSWPENVGTTPVQYTRYDPTSTGGTDNTAIYEYGHGLSYTDF
soluble on expression in E. coli: not soluble
--
sequence.string: MGSDKIHHHHHHMKTMRKILEIDEERCNGCGLCVLDCAEGAIAIVDGKAKIVSDSFCDGLGACIGSCPQDALHIIEREAVPFDEEAAMEHVRSQGGTPEANHGHGHGAGTPHRHGQSAEHGGHGRIPGHGGCPGAAMRRFDSAESPAFAVAEGTVKGPGHWPLKIRLVPPTAPFLKGADVLVAADCAAAASPIFHSHFAAGKVVLIGCPKFDDTEAYAERLADILRVSGIASLTVLRMEVPCCRGLSAAAEKARVLSGTSLVLKEVIMTCAGGPAAPAPLSSL
soluble on expression in E. coli: not soluble
--
sequence.string: MAHHHHHHMRMSLTTRRPFCPVLLNIGSSRAVTLSHFHAKVCPSITATVKQTIRELDDEASPNHQRRQESCFSSGELRLRPYGFSPERPQLQHESWSCAWHSYLNAVRLRGEVSAAGVAPLPPTATSANSTSHNDDEFFPMTGTLTLPVPVVVPTSNNEPSNETIMMEFFRVDAFIPVRVQMYHVMRRLIKMQAVWNNIVAIGIVVPTHEVEYFISAARAAHASDGERTPHALLSRKPSVLVYDPEGLRFQAPESKRLRK
soluble on expression in E. coli: not soluble
--
sequence.string: MQYPINEMFQTLQGEGYFTGVPAIFIRLQGCPVGCAWCDTKHTWDKLSDREVSLFSILAKTKESDKWGAASSEDLLAVINRQGYTARHVVITGGEPCIHDLMPLTDLLEKSGFSCQIETSGTHEVRCTPNTWVTVSPKVNMRGGYDVLSQALERANEIKHPVGRVRDIEALDELLATLSDDKPRVIALQPISQKEDATRLCIETCIARNWRLSMQTHKYLNIA
soluble on expression in E. coli: not soluble
--
sequence.string: MGSDKIHHHHHHMRLVLSGYYGFYNVGDEAILQSIIKALYEEEPTLELVVLSNDPDYTRKMYGVEAVNRWDIRAIYKEIKRSSGLISGGGSLLQDKTSIKSILYYTGIMRIARFLKKPYYIYAQGIGPITKRQNRLLVKWQVSKAEYISVRDEDSFLYLKEIGIKKDIELVPDPVLACQSEGMKSEWLQKHSIQGKVIAVSVRYWDAKEDYMKKLADTLKKFKRDGYHILFVPMHGPFDQNASRDIINLMGEEAHMLPYKLDIHEKISIFSECSLLIGMRLHALILSAVANIPMVGISYDPKVDSFLQQVNQPIIGNVDGDWTAETLYNVAMKQLEQKEYIQAKLEQRVEELREQISTASRYIISDLNSKEFKKENVEFHK
soluble on expression in E. coli: not soluble
--
sequence.string: MLLDVQHGQFGFIKGGIIAVIWFSLSRTINCGQLNLECFEFWLPTSQLLVLDVCLFDAFALEHHHHHH
soluble on expression in E. coli: not soluble
--
sequence.string: MGADGGTIPKRCELVKERKKKEKLDKHVKNATKWRNCQLTQLPLKRPVIACRFGKLYNKEDVINSILSKTISKSASASHIKGPKDFVELKLTLNKDFKRGDVKGDDYNDVNQTEFICPITNVPMNGIQSFLVNWQCGCVYSEKAQQEVKSSNCHVCGGPYDATKMVILNPEPEQLELYKLKWEAEKAEKAAAKKDKAKKTAEKMEAAASLAAGSGGEASSVAPGPSGSGVGKHVDLKKKLEIAKLTGGSTSEKKAEKRKANTDIQSDPTTSDTYKKLFTTCEAAKNKTEGHWVTYNPLYY
soluble on expression in E. coli: soluble
--
sequence.string: MAHHHHHHMANGVTANSMRVSVKAPDLGAFPLDHYRECKSEIEEYYTCLRSNDYVTPMCREQVRAYLQCRMDRGLMKPADIEGFGIPETEFVPMRQHRADIRQQWLRQKMNQVTAVWESYRRDDLNVPDGYERPRGSDSGGRPQPLPGETNKT
soluble on expression in E. coli: not soluble
--
sequence.string: MGSDKIHHHHHHMIQRRETFLNNVAEKLGRGRRTAGVKRPDYTVKPQFEVMKEHSSDQLVNVLSEQCTKIHTDVKQTKVDRLEQAIDNVLEEYSARNVITWNDPRFDQFGLTSFLQREQVEVWDHTEGERLVEKAEQADIGITFADYTLAESGTVVLLSGNGKGRSVSLLPTYYIAIIPKSTLVPRMSQVTRELHLKAASGERLPSCINFISGPSNSADIEMNLVVGVHGPIRACYIVVEDR
soluble on expression in E. coli: not soluble

* * *

Assay: soluble on expression in E. coli; label from the status in PepcDB or PDB records
readout.type: soluble on expression in E. coli

sequence.string: MTPTLETKYVFTITARIGDVTSAGEIGTGVRRIIPILGGEVKGEGISGQVLPFGADFQIIRPNELIELEAKYAFETDDGAVVYVENVGIRFGPVELLRKLKRGEPVDPKVIYFRTRPRFETGHPNYQWLMQYLFVGSAARHADRVVIDVHQVL
assay.result: soluble
//
sequence.string: RKQDTQRALHLLEEYRSKLSQTEDRQLRSSIERVISIFQSNLFQALIDIQEFYEVTLLDN
assay.result: soluble
//
sequence.string: AIASSAIERKSLDPSEEPVDEVLQIPPSLLTCGGCQQNIGDRYFLKAIDQYWHEDCLSCDLCGCRLGEVGRRLYYKLGRKLCRRDYLRLFGQDGLCASCDKRIRAYEMTMRVKDKVYHLECFKCAACQKHFCVGDRYLLINSDIVCEQDIYEWTKINGMI
assay.result: soluble

* * *

Experiment: soluble on expression in E. coli; label from the status in PepcDB or PDB records

sequence.string: SQPIATQELQLGDELANKAFAATNRGDFVAAEDYWTQIIEKFPINAGAWINRGNSRVSQNKLEAALTDYNKAIELAPNLTDPYLNRGTALEGLGKWEDAIADYNYVLALDPNDAMAYNNRGNAKTGLGKWEDAISDYQKATAIAPNFAFARANYALALYETGQTDKAIREMRNIVRKYPKFADMRAALTAAYWVGGQKGEAESNWVAAYGLDTRYKDMDWVTNIRRWPPSMVAALDKFLKLN
soluble on expression in E. coli: soluble
//
sequence.string: GSSEDKITVHFINRDGETLTTKGKIGDSLLDVVVQNNLDIDGFGACEGTLACSTCHLIFEQHIFEKLEAITDEENDMLDLAYGLTDRSRLGCQICLTKAMDNMTVRVPDAVSDARESIDMGMNSSKIE
soluble on expression in E. coli: soluble

* * *

Assay: soluble on expression in E. coli; label from the status in PepcDB or PDB records
readout.type: soluble on expression in E. coli

sequence.string: MTDQPDVQRVQTASRDNSTVIDLREYKTNKDPLPVTFHRRELDAILRIYGRMVGEGEWRDYAIDHLKEKAVFSVFKRSGEMPLYRIEKNPKLATKQGAYCVVNVDGRILKRGHELPQVLKVFDKVLKLIE
assay.result: not soluble
--
sequence.string: MGSDKIHHHHHHMEYTSLIFPGDKIDIFASGLSDNSTSYKSSFSDKLTDSMWEITMPVDSGRVVLFQLGTQFDFIIYTQNKTILKSSAIVRQRYRKENMYFLAIELINNLEKIQRRQFFRLPCTIDMDFYEVRYDDKAESELEFCKKMYKNHAINSKNMNTVKSVILDISGGGIRFSLSTPLEEGTYFMAQFSLALEECTQQFNIVCKVINCTQSLDYADRYFARSKFIFDRMTEREKIVRFVFEEERRIRRREME
assay.result: not soluble
